target: HCK (Homo sapiens (Human), UniProt P08631); experiment: Invitrogen Select Screening kinase assay; assay type: biochemical; conditions: in vitro, read-out: HCK IC50 (nM) Inv
Sequence (P08631 whole entry): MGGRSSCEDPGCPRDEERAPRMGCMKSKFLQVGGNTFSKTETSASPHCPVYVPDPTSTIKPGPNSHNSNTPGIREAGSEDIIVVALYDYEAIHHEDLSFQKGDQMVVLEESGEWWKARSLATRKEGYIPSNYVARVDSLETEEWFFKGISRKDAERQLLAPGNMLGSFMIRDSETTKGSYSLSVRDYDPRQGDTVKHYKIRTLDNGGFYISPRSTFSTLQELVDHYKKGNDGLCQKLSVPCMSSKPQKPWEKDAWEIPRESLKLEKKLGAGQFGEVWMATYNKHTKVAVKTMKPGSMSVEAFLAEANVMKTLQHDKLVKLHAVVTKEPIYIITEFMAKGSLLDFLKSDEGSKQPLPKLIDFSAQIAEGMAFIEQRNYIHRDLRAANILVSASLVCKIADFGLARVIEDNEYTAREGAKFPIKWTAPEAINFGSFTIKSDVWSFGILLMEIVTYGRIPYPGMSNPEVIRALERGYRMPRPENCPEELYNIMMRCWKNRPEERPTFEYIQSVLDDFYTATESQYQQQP
// IC50 lookup, one value per entry
Provide the reading as a plain figure in nM.

| smiles_structure | quantity_measured | unit_spec | reported |
| --- | --- | --- | --- |
| CCN1CCN(Cc2ccc(NC(=O)c3ccc(C)c(NC(=O)c4cncc(-c5cnn(C)c5)c4)c3)cc2C(F)(F)F)CC1 | IC50 | nM | 2.43 |

Then there is this compound:
Input: Requested field: IC50. Item: "CCN1CCN(Cc2ccc(NC(=O)c3ccc(C)c(NC(=O)c4cncc(-c5cnoc5)c4)c3)cc2C(F)(F)F)CC1"
Output: 5.33
